All values here come from PubChem BioAssay AID1963863.

# System: 931267-113-T-J1-PDC KRAS spheroid with HUVEC/MSC, viability
# METHOD: Anticancer human tumor 931267-113-T-J1-PDC patient-derived colon adenocarcinoma cell line growth inhibition [KRAS2]; active means viability on the fitted dose curve at most 10% of control; inactive means the rest
# PROTOCOL_CONDITIONS: second compound 0.1 µM; first compound 10 µM
Write down one outcome, taken from active, inactive

Would you please look over these solved cases?
What was the test verdict on O=C(c1cc(Cc2n[nH]c(=O)c3ccccc23)ccc1F)N1CCN(C(=O)C2CC2)CC1 + CNCc1ccccc1-c1csc(C(C)Nc2nc(C)nc3cc(OC)c(OC)cc23)c1 ?
inactive

Consider next the molecule Cn1nccc1Nc1nccc(-c2cc3c(s2)C(C)(C)N(CCN2CCOCC2)C3=O)n1 + C=CC(=O)N1CCN(c2nc(=O)n(-c3c(C)ccnc3C(C)C)c3nc(-c4c(O)cccc4F)c(F)cc23)C(C)C1 in the same way.
active

Here is another molecule to look at.
Please indicate how the test categorized COC(=O)c1ccc2c(C(=Nc3ccc(N(C)C(=O)CN4CCN(C)CC4)cc3)c3ccccc3)c(O)[nH]c2c1 + COc1cc2nc(C)nc(NC(C)c3cc(N)cc(C(F)(F)F)c3)c2cc1OC1CCOC1 .
active

###

# Tested on: 931267-113-T-J1-PDC KRAS spheroid with HUVEC/MSC, viability
# METHOD: Anticancer human tumor 931267-113-T-J1-PDC cell line growth inhibition [KRAS2]; active means viability on the fitted dose curve at most 10% of control; inactive means the rest;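 further: compound exposure lasted 7 days before the readout; 100% = DMSO vehicle control viability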
# PROTOCOL_CONDITIONS: second compound 3.16 µM; first compound 0.000316 µM
Mark one answer only. Choices: active, inactive

I would be grateful if you could indicate the recorded call for CC(C)n1nc(-c2ccc3oc(N)nc3c2)c2c(N)ncnc21 + CNCc1ccccc1-c1csc(C(C)Nc2nc(C)nc3cc(OC)c(OC)cc23)c1 .
active

Follow-up entry: CN(C)C/C=C/C(=O)Nc1cc2c(Nc3ccc(F)c(Cl)c3)ncnc2cc1O[C@H]1CCOC1 + CC1OCC2(CCN(c3cnc(Sc4ccnc(N)c4Cl)c(N)n3)CC2)C1N
inactive

Again, but for CC(C)n1nc(-c2ccc3oc(N)nc3c2)c2c(N)ncnc21 + COc1cc2nc(C)nc(NC(C)c3cc(N)cc(C(F)(F)F)c3)c2cc1OC1CCOC1
inactive

###

# System: 931267-113-T-J1-PDC KRAS spheroid with HUVEC/MSC, viability
# METHOD: Anticancer human tumor 931267-113-T-J1-PDC cell line growth inhibition [KRAS2];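 further: compound exposure lasted 7 days before the readout; 100% = DMSO vehicle control viability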
# PROTOCOL_CONDITIONS: second compound 1 µM; first compound 0.1 µM; active compounds read low
Would you mind telling me the reported viability, T/C of each entry?
One number for each entry, in %.

Known viability, T/C results, listed for orientation:
Name the reported viability, T/C value associated with the molecule CCNC(=O)CC1N=C(c2ccc(Cl)cc2)c2cc(OC)ccc2-n2c(C)nnc21 (stereo not drawn) + CNCc1ccccc1-c1csc(C(C)Nc2nc(C)nc3cc(OC)c(OC)cc23)c1
53

And what about the molecule COc1cc(Nc2ncc3c(n2)-c2ccc(Cl)cc2C(c2c(F)cccc2OC)=NC3)ccc1C(=O)O + C=CC(=O)N1CCN(c2nc(OCC3CCCN3C)nc3c2CCN(c2cccc4cccc(C)c24)C3)CC1CC#N ?
60.3

Further cases:
Could you share which viability, T/C value was measured for CC1(C)CCC(CN2CCN(c3ccc(C(=O)NS(=O)(=O)c4ccc(NCC5CCOCC5)c([N+](=O)[O-])c4)c(Oc4cnc5[nH]ccc5c4)c3)CC2)=C(c2ccc(Cl)cc2)C1 + CC1OCC2(CCN(c3cnc(Sc4ccnc(N)c4Cl)c(N)n3)CC2)C1N ?
75.9
